B1: BRF1 (parent)
chain: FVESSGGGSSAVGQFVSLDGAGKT

Variants of: B1
Assay: protein stability index of a GFP-peptide fusion (GPS, HEK-293T) (PSI 1-6); higher = more stable;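 further: lentivirally expressed fusions sorted by FACS into six bins by GFP to DsRed ratio, PSI derived from sequencing read proportions per bin multiplied by bin number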
Conditions: c terminus: a fixed tail appended
Okay, here is how we bin by protein stability index: lo: < 2; med: ≥ 2 and < 3; hi: ≥ 3

Sample answers from the record:
Please let me know in which category the item F15V belongs.
med

Class for S4H ?
med

Exam item: assign A11Y to the correct category.
lo

***
Textbook exercise: identify the category of the variant given here, K23P , according to its measured value.
med

Which class does S5E fall in?
hi
